Parameter: T cell response relative to baseline (None = 1.0), 20 μM HEL E^d, first value. Scope: all listed entries.
Biological target: murine E^d MHC class II allele (Mus musculus, UniProt P01904+P01915)
Sequence (P01904 26-255): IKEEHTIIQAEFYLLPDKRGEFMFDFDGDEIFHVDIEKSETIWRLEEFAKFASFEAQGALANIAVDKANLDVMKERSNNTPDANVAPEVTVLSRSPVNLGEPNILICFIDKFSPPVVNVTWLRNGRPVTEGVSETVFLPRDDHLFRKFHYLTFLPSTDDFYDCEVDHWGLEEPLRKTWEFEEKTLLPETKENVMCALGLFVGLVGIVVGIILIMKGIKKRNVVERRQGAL
Sequence (P01915 27-264 limits assumed): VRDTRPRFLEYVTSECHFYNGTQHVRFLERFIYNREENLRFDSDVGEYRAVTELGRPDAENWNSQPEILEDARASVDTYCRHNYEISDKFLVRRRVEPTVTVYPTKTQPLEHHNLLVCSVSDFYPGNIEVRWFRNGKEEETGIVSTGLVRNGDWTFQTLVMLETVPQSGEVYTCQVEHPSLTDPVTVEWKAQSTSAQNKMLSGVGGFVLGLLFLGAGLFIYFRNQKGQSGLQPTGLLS
Experiment: processed antigen assay, E^d allele (APC pulsed with native HEL)
Format: cell-based
Design: The A20 and CH27 B cell lymphoma lines express H-2^d and H-2^k alleles, respectively; endogenous in cells; host or cells: A20 B cell lymphoma (mitomycin C-treated or paraformaldehyde-fixed)
Conditions: Table 29; native HEL prepulse 20 μM; AE peptide 64 μM; supernatant dilution 1:4 (first value)
Non-standard residues stand in square brackets, D forms with d. hArg = N=C(N)NCCCC[C@H](N)C(=O)O; Cit = NC(=O)NCCC[C@H](N)C(=O)O
measurement_name: T cell response relative to baseline (None = 1.0), 20 μM HEL E^d, first value

substance="Ac-LRMK F PK-NH2 (Ac-LRMKFPK-NH2) [AE234]" observed_measurement=0.98,
substance="Ac-LRMK D PK-NH2 (Ac-LRMKDPK-NH2) [AE230]" observed_measurement=1.1,
substance="Ac-LRMK HArg PK-NH2 (Ac-LRMK[hArg]PK-NH2; SMILES CSCC[C@H](NC(=O)[C@H](CCCNC(=N)N)NC(=O)[C@H](CC(C)C)NC(C)=O)C(=O)N[C@@H](CCCCN)C(=O)N[C@@H](CCCCNC(=N)N)C(=O)N1CCC[C@H]1C(=O)N[C@@H](CCCCN)C(N)=O) [AE227]" observed_measurement=0.45,
substance="Ac-LRMK Cit PK-NH2 (Ac-LRMK[Cit]PK-NH2; SMILES CSCC[C@H](NC(=O)[C@H](CCCNC(=N)N)NC(=O)[C@H](CC(C)C)NC(C)=O)C(=O)N[C@@H](CCCCN)C(=O)N[C@@H](CCCNC(N)=O)C(=O)N1CCC[C@H]1C(=O)N[C@@H](CCCCN)C(N)=O) [AE226]" observed_measurement=0.95,
substance="Ac-LRMKLPK-NH2 [AE114]" observed_measurement=0.53,
substance="Ac-LRMK Q PK-NH2 (Ac-LRMKQPK-NH2) [AE233]" observed_measurement=0.74,

###

Target: murine A^d MHC class II allele (Mus musculus, UniProt P01921+P04228)
Construct: The A20 and CH27 B cell lymphoma lines express H-2^d and H-2^k alleles, respectively; endogenous in cells; host or cells: A20 B cell lymphoma (mitomycin C-treated)
Sequence (P04228 24-256): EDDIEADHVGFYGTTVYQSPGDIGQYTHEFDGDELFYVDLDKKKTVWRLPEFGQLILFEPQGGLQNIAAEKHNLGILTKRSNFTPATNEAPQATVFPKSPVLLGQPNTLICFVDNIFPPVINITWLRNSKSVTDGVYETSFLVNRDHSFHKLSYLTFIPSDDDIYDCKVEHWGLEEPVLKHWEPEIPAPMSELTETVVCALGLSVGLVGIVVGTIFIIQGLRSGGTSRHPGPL
Sequence (P01921 28-265): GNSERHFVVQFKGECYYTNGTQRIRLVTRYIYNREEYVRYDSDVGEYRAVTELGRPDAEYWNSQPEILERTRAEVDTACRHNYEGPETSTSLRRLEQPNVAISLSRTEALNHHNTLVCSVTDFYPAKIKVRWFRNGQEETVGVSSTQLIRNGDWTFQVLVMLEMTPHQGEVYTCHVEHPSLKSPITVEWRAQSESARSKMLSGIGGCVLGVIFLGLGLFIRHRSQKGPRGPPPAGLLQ
Assay: simultaneous assay, A^d allele (A20 APC, 9.30.B2 T hybridoma, HEL11-25)
Type: cell-based
Details: Table 2; AE peptide 64 μM; 0.05 μM HEL11-25; supernatant 1:2
Protocol: In the “simultaneous assay” the four components of the assay are cultured together for a 24 h period. […] The degree of stimulation of that second, indicator cell by the interleukins which had been released from the activated T cell hybridoma in the primary culture is measured by quantitating tritiated thymidine deoxyribose {[^3H]TdR} uptake into the DNA of the HT-2 indicator cells of that second culture. […] Antigenic peptide-specific T cell activation was measured by the following procedure. […]
# Times Baseline Response, A^d annotations
measurement_name: Times Baseline Response, A^d

substance="Ac-NLQLDSLRMKLPKSAK-NH2 [AE150]" measurement_name="Times Baseline Response, A^d" observed_measurement=1.0
substance="Ac-YRMKLPKSAK-NH2 [AE109]" measurement_name="Times Baseline Response, A^d" observed_measurement=0.9
substance="Ac-LRMKLPKSAK-NH2 [AE110]" measurement_name="Times Baseline Response, A^d" observed_measurement=0.7
substance="Ac-QLDSLRMKLPKSAK-NH2 [AE152]" measurement_name="Times Baseline Response, A^d" observed_measurement=0.9
substance="Ac-SLRMKLPKSAK-NH2 [AE155]" measurement_name="Times Baseline Response, A^d" observed_measurement=0.8
substance="Ac-DSLRMKLPKSAK-NH2 [AE154]" measurement_name="Times Baseline Response, A^d" observed_measurement=1.1
substance="Ac-LDSLRMKLPKSAK-NH2 [AE153]" measurement_name="Times Baseline Response, A^d" observed_measurement=1.2
substance="Ac-LQLDSLRMKLPKSAK-NH2 [AE151]" measurement_name="Times Baseline Response, A^d" observed_measurement=1.1
